- testedOn: Torsin-1A (Homo sapiens) (UniProt O14656)
- Sequence (O14656 whole entry, looked up): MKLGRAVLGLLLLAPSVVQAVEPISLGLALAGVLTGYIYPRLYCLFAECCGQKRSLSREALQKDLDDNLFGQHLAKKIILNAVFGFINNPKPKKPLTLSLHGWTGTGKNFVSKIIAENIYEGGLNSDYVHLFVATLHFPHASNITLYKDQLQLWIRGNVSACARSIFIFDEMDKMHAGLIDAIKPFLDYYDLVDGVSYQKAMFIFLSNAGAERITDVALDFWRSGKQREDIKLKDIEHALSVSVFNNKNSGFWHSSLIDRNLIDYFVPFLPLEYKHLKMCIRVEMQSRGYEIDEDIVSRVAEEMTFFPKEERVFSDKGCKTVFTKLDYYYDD
- procedureDetails: torsin A binders from cell lysate, primary screen, small-molecule microarray, wild-type, 635/667 nm (AID 1149)
- measurementContext: COS7 hTOR1A-WT lysate, 635 nm fluorescence, higher = more signal
Below, each entry is listed alongside its reported composite z-score.
Could you keep your reply to the number by itself?

Here's what some known entries look like.
C=C(CCCC)C(=O)CC[C@@H](OC(=O)c1cccnc1)c1ccc(OCCO)cc1 = 1.12
CO[C@H]1O[C@H](CO)[C@@H](OC(=O)Nc2ccc(C#N)cc2)[C@@H]2OC(=O)[C@H](Cc3cccc(Br)c3)C/C=C/C[C@@H](Cc3cccc(Br)c3)C(=O)O[C@@H]12 = 0.185
COc1ccc(C(=O)Nc2cccc(CN3C(=O)[C@]4(O[C@H](CCn5cc([C@H](O)c6ccccc6)nn5)[C@@H]([Si](C)(C)c5ccc(OC)cc5)[C@@H]4C)c4ccccc43)c2)cc1 = 0.0107
COc1cc(C(O)C2C=CC3C(=O)N(Cc4ccccc4)C(=O)C3N2n2cnnc2)cc(OC)c1OC (stereo not given) = 0.683
CN1C(=O)C2C=CC(C(O)c3cc(C(F)(F)F)cc(C(F)(F)F)c3)N(NC(=O)OC(C)(C)C)C2C1=O (stereo not given) = 0.49
CCOC(=O)C[C@H]1[C@H](OC(=O)c2ccc(C(=O)c3ccccc3)cc2)[C@@H](NC(=O)CC(C)C)c2cc(OCCCO)ccc2N1C(=O)Cc1ccc(OC)cc1 = 0.311
CN1C=C(C(=O)OCCS(C)(=O)=O)C(C(=O)OCCS(C)(=O)=O)=CC(c2ccc(CO)cc2)=CC1c1cccs1 (stereo not given) = 0.579
C=C(COC)C(=O)CC[C@H](OC(=O)c1cccnc1)c1ccc(CO)o1 = 2.19

API: the following record is the query input.
Task item: // query composite z-score value for entry COC(=O)[C@@]1(Cc2ccc(OC)cc2)[C@H]2c3cc(C(=O)N4CCCC4)n(Cc4ccc(OC(F)(F)F)cc4)c3C[C@H]2CN1C(=O)c1ccccc1
Reply: -1.04

* * *

- testedOn: Pro-neuregulin-1, membrane-bound isoform (Homo sapiens) (UniProt Q02297)
- Sequence (Q02297 whole entry, looked up, canonical isoform): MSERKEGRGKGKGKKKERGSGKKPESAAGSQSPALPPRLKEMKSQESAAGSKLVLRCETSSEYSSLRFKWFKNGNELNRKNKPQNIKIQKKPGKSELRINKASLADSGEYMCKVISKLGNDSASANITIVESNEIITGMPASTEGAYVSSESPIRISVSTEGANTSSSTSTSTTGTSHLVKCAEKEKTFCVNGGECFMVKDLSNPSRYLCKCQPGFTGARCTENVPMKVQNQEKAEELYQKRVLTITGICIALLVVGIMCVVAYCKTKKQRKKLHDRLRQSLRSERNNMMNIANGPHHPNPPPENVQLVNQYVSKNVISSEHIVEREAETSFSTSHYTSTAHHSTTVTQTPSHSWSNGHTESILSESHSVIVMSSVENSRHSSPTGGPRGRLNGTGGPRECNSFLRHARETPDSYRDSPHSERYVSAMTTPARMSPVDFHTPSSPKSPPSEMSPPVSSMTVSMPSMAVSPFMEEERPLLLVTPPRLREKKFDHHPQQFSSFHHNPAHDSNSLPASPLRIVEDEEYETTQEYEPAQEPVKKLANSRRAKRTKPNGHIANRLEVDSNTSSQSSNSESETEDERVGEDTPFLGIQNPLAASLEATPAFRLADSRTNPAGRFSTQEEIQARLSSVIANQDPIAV
- procedureDetails: NRG1 binders on small-molecule microarrays, primary screen, psychiatric disease protein project, biochemical, small-molecule microarray, fluorescence 635/667 (AID 1075);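 further: score combines 667 nm spot fluorescence with signal to noise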
- measurementContext: NRG1 binding, 635 nm fluorescence, higher = more signal
Label condition met for high-side composite z-score (at or above 1) and condition not met for low-side composite z-score (below it).

Example cases with answers are listed next.
COCCOC(=O)N1C(=O)[C@@]2(c3cc(C#CC4(O)CCCCCC4)ccc31)[C@H](c1ccc(OCCO)cc1)N1[C@H](c3ccccc3)[C@H](c3ccccc3)OC(=O)[C@H]1[C@@H]2C(=O)Nc1nc2ccccc2s1 = condition not met
C=CCC(OC(C)=O)[C@@H]1[C@@H](N(Cc2ccc(-c3ccccc3)cc2)C(=O)Cc2ccc(F)cc2)c2cc(OCCCO)ccc2N1C(=O)Cc1ccc2ccccc2c1 (some centres not stated) = condition not met
CCc1cccc(NC(=O)O[C@H]2[C@H](OC(=O)Nc3ccccc3)[C@H](OC(=O)Nc3ccccc3)[C@@H](OC)O[C@@H]2CO)c1 = condition met
C=CCOC(=O)[C@H]1[C@@H]2C(=O)O[C@@H](c3ccccc3)[C@@H](c3ccccc3)N2[C@@H](c2ccc(OCCOC(=O)[C@H]3C[C@H]4C(=O)N[C@@H](CCCCNC(C)=O)C(=O)N4[C@H]3c3cccc(OCCO)c3)cc2)[C@]12C(=O)Nc1ccc(I)cc12 = condition met
Nc1cc(Br)ccc1C(=O)O = condition not met

Task item: State whether the measured composite z-score reaches 1, counting equality as reaching it, for C=C[C@@H](C)[C@@H](OC(=O)Nc1ccc(SC)cc1)c1ccc(OCCO)cc1
Reply: condition met

Task item: Try COC(=O)C1N=C(c2ccc(OCCCO)cc2)N(c2ccccc2)O1 (configuration not stated) next.
Reply: condition met
